- measuredTarget: CBP (Homo sapiens (Human), UniProt Q92793)
- Sequence (Q92793 1081-1197): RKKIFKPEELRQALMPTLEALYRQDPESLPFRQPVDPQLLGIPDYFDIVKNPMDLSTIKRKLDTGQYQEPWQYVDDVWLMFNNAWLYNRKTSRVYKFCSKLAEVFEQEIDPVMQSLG
- assaySummary: In vitro CBP inhibition (AlphaScreen, biotinylated H4-tetraacetyl peptide)
- Format: binding
- statedConditions: AlphaScreen, Table 29; read-out: CBP IC50
pIC50: −log10 of the molar value.
Please go through the items and note down their pIC50.

Prompt: Please look up its pIC50: Cn1cc(-c2cnn(C3CCOCC3)c2)c(-c2ccccc2)cc1=O
Response: > 6.30

Prompt: Please look up its pIC50: Cn1cc(-c2cnn(Cc3ccccc3)c2)c(-c2ccc(C#N)cc2)cc1=O
Response: > 6.30

Prompt: Please look up its pIC50: CC(c1cccnc1)n1cc(-c2ccc(=O)n(C)c2)cn1 (stereo not drawn)
Response: 5.30 to 6.30

Prompt: Please look up its pIC50: Cn1cc(-c2cnn(Cc3ccccc3)c2)c(N2CC[C@@H](NS(C)(=O)=O)C2)cc1=O
Response: 5.30 to 6.30

Prompt: Please look up its pIC50: CCOc1cc(=O)n(C)cc1-c1cnn(Cc2cccc(C(=O)OC)c2)c1
Response: > 6.30

Prompt: Please look up its pIC50: COc1cncc(-c2cc(=O)n(C)cc2-c2cnn(-c3ccccc3C#N)c2)c1
Response: > 6.30

Prompt: Please look up its pIC50: Cn1cc(-c2cc(=O)n(C)cc2-c2cnn(CC3CC3(F)F)c2)cn1 (stereo not drawn)
Response: > 6.30

Prompt: Please look up its pIC50: Cn1cc(-c2cnn(-c3ccccc3C(=O)O)c2)c(-c2cccnc2)cc1=O
Response: > 6.30

Prompt: Please look up its pIC50: COC1CN(c2cc(=O)n(C)cc2-c2cnn(C(C)c3ccccc3)c2)C1 (stereo not drawn)
Response: 5.30 to 6.30

Prompt: Please look up its pIC50: CCOc1cc(=O)n(C)cc1-c1cnn(-c2cccc(C)c2C#N)c1
Response: > 6.30

Prompt: Please look up its pIC50: CC(C)Oc1ccc(-c2cc(=O)n(C)cc2-c2cnn(-c3cccc(Cl)c3C#N)c2)cn1
Response: > 6.30

Prompt: Please look up its pIC50: CCOc1cc(=O)n(C)cc1-c1cnn(-c2cc(Oc3ccccc3)ccc2C#N)c1
Response: > 6.30

Prompt: Please look up its pIC50: COCCNc1ncc(-c2cc(=O)n(C)cc2-c2cnn(-c3cccc(Cl)c3C#N)c2)cn1
Response: > 6.30

Prompt: Please look up its pIC50: CC(C)Oc1cc(=O)n(C)cc1-c1cnn([C@H](C)c2ccccc2)c1
Response: > 6.30

Prompt: Please look up its pIC50: Cn1cc(-c2cnn(Cc3ccccc3)c2)c(-c2ccc(C(=O)O)cc2)cc1=O
Response: > 6.30

Prompt: Please look up its pIC50: Cn1cc(-c2cnn(Cc3ccccc3)c2)c(SCC(=O)O)cc1=O
Response: > 6.30

Prompt: Please look up its pIC50: COc1cccc(-c2cc(=O)n(C)cc2-c2cnn(Cc3ccccc3)c2)c1
Response: > 6.30

Prompt: Please look up its pIC50: Cn1cc(-c2cnn(-c3cccc(Cl)c3C#N)c2)c(-c2cnc(N3CCCCC3)nc2)cc1=O
Response: > 6.30

====

Please go through the items and note down their pIC50.
- measuredTarget: CBP (Homo sapiens (Human))
- assaySummary: In vitro CBP inhibition (AlphaScreen, biotinylated H4-tetraacetyl peptide)
- Type: binding
- statedConditions: AlphaScreen, Table 29; read-out: CBP IC50
pIC50: −log10 of the molar value.

Prompt: Lab note: need pIC50 with CBP (Homo sapiens (Human)) for entry Cc1c(-c2cn(C)c(=O)cc2-c2ccccc2)cnn1C , please look it up.
Response: 5.30 to 6.30

Prompt: Lab note: need pIC50 with CBP (Homo sapiens (Human)) for entry Cn1nccc1-c1cc(=O)n(C)cc1-c1cnn(Cc2ccccc2)c1 , please look it up.
Response: 5.30 to 6.30

Prompt: Lab note: need pIC50 with CBP (Homo sapiens (Human)) for entry Cn1cc(-c2cnn(Cc3ccccc3)c2)c(N2CC[C@@H](C(=O)O)C2)cc1=O , please look it up.
Response: > 6.30

Prompt: Lab note: need pIC50 with CBP (Homo sapiens (Human)) for entry CC(=O)N[C@H]1CCN(c2cc(=O)n(C)cc2-c2cnn(Cc3ccccc3)c2)C1 , please look it up.
Response: 5.30 to 6.30

Prompt: Lab note: need pIC50 with CBP (Homo sapiens (Human)) for entry CC(c1ccccc1)n1cc(-c2cn(C)c(=O)cc2OCc2ccccc2)cn1 (stereo not drawn) , please look it up.
Response: > 6.30

Prompt: Lab note: need pIC50 with CBP (Homo sapiens (Human)) for entry Cn1cc(-c2cn(C)c(=O)cc2-n2ccc(C(=O)O)c2)cn1 , please look it up.
Response: > 6.30

Prompt: Lab note: need pIC50 with CBP (Homo sapiens (Human)) for entry COC(=O)Cn1cc(-c2cn(C)c(=O)cc2-c2ccccc2)cn1 , please look it up.
Response: > 6.30

Prompt: Lab note: need pIC50 with CBP (Homo sapiens (Human)) for entry CCNc1ncc(-c2cc(=O)n(C)cc2-c2cnn(-c3cccc(F)c3C#N)c2)cn1 , please look it up.
Response: > 6.30

Prompt: Lab note: need pIC50 with CBP (Homo sapiens (Human)) for entry CC(c1ccccc1)n1cc(-c2cn(C)c(=O)cc2Cl)cn1 (stereo not drawn) , please look it up.
Response: > 6.30

====

- measuredTarget: CBP (Homo sapiens (Human))
- assaySummary: In vitro CBP inhibition (AlphaScreen, biotinylated H4-tetraacetyl peptide)
- Format: binding
- statedConditions: AlphaScreen, Table 29; read-out: CBP IC50
pIC50: −log10 of the molar value.
parameterMeasured: pIC50

Prompt: Please look up its pIC50: CC(=O)NC[C@@H]1CCN(c2cc(=O)n(C)cc2-c2cnn(Cc3ccccc3)c2)C1 (stereo in doubt)
Response: > 6.30

Prompt: Please look up its pIC50: Cn1cc(-c2cnn(Cc3ccccc3C#N)c2)ccc1=O
Response: 5.30 to 6.30

Prompt: Please look up its pIC50: CC(c1ccccc1)n1cc(-c2cn(C)c(=O)cc2Oc2ccccc2)cn1 (stereo not drawn)
Response: 5.30 to 6.30

Prompt: Please look up its pIC50: Cn1cc(-c2cc(=O)n(C)cc2-c2cnn(-c3ccccc3C#N)c2)ccc1=O
Response: > 6.30

Prompt: Please look up its pIC50: CC(c1ccccc1)n1cc(-c2cn(C)c(=O)cc2-n2cccn2)cn1 (stereo not drawn)
Response: > 6.30

Prompt: Please look up its pIC50: CNC(=O)c1ccn(-c2cc(=O)n(C)cc2-c2cnn(Cc3ccccc3)c2)c1
Response: > 6.30
